Data provenance is ChEMBL document CHEMBL5316329.

- Tested on: Human immunodeficiency virus 1
- assay-name: Antiviral activity against NNRTI-resistant HIV-1 RES056 infected in human MT4 cells assessed as virus-induced cytopathicity treated for 5 days by MTT assay
- Format: functional, organism-based
- condition-info: Human immunodeficiency virus 1, RES056, MT4, 120 h
pEC50: −log10 of the molar value.
Use label 1 when the recorded pEC50 is no lower than 7; use label 0 when it is lower.

Cc1cc(/C=C/C#N)cc(C)c1Oc1nc(NC2CCN(Cc3ccc(C(N)=O)cc3)CC2)ncc1-c1ccc2c(c1)OCO2 = label 1
Cc1cc(/C=C/C#N)cc(C)c1Oc1nc(NC2CCN(Cc3ccc(S(N)(=O)=O)cc3)CC2)ncc1-c1ccccc1O = label 0
Cc1cc(/C=C/C#N)cc(C)c1Oc1nc(NC2CCN(Cc3ccc(S(C)(=O)=O)cc3)CC2)ncc1-c1ccccc1O = label 0

Let's switch to this molecule now.
Would you say Cc1cc(C#N)cc(C)c1Oc1nc(Nc2ccc(C#N)cc2)nc(N)c1Br shows pEC50 at minimum 7?
label 1
